Target: Serine/threonine-protein kinase Chk2 (Homo sapiens);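 also: reported value is the mean inhibition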
Settings: at 1 µM
Record form. Attribute: inhibition. Fill in for each entry.

stdin: Complete the entry with inhibition for COc1cccc(-n2cnc3c(N/N=C/c4ccncc4)ncnc32)c1
stdout: -0.32%

stdin: Give reported inhibition value for Cc1ccc(C(=O)NC2CCC2)cc1-c1ccc(C(=O)NCC2CC2)cc1
stdout: 3.06%

stdin: Respond only with inhibition recorded for C[C@@H](Oc1cc(-n2cnc3ccc(OC4CCN(C)CC4)cc32)sc1C(N)=O)c1ccccc1Cl
stdout: 5.06%

stdin: Give the measured inhibition for O=C(Nc1n[nH]c2nc(-c3ccc(O)cc3)c(Br)cc12)C1CC1
stdout: 4.23%

stdin: Dear colleague, please send me the reported inhibition for c1ccc(Oc2ccc(Nc3ncc(-c4ccccc4)o3)cc2)cc1 when you can.
stdout: 1.05%

stdin: Give the measured inhibition for COc1ccc(-c2ccc3c(NC(=O)C4CC4)n[nH]c3n2)cc1
stdout: 1.92%

stdin: Input O=C(Nc1ccc(Oc2ccc3[nH]c(NC(=O)c4ccccc4)nc3c2)cc1)Nc1cc(C(F)(F)F)ccc1F , output reported inhibition.
stdout: 3.89%
